- System: A498 renal
- Test Method Notes: NCI-60 one-dose screen, 48 h
- Measurement Parameters: 10 µM unless noted
- Experimental: Growth inhibition of the A498 human tumor cell line is measured as a screen for anti-cancer activity. Cells are grown in 96 well plates and exposed to the test compound for 48 hours. Compounds are tested at a single concentration, which is 10^-5 M for most compounds. The reported endpoint is percent growth (GI% or GIPRCNT), where numbers from 0 - 100% represent growth inhibition, and numbers from -100% - 0 represent cell death. For example, a value of 40 represents 60% growth inhibition. […]
Compounds without any hit were thinned out: in the full panel of roughly 83,000, 20% have a hit. Calls of active or inactive are those of the source. How the source made its calls: active means growth percent below 10; inactive means the rest.
Give one outcome, nothing more. List: active, inactive

Below, 3 molecules whose answers are already recorded.
Exercise: What was the test verdict on CCn1cc(Cc2cc(C(=O)Nc3cc4cc(OC)c(OC)cc4c(C)n3)ccc2Cl)cn1 ?
Solution: inactive

Exercise: What was the test verdict on CC(=O)Nc1sc2c(c1-c1nc3ccccc3s1)CNC2 ?
Solution: inactive

Exercise: What was the test verdict on O=S(=O)(N=C1C(Cl)=C(Cl)C(=NS(=O)(=O)c2ccccc2)C(Cl)=C1Cl)c1ccccc1 ?
Solution: inactive

More entries:
Exercise: What was the test verdict on COc1ccc(Nc2ncc(C#N)c(NCCCNC(=O)C3CCC3)n2)cc1 ?
Solution: inactive

Exercise: What was the test verdict on COc1cc(-c2ccc(-c3ccc(C(=N)N)cc3)s2)cc(OC)c1OC ?
Solution: inactive

###

- Test system: A549/ATCC NSCLC
- Test Method Notes: NCI-60 one-dose screen, 48 h
- Measurement Parameters: 10 µM unless noted
This is part of a sample that, as a whole, favours compounds with a hit. Of some 83,000 tested, about 20% had one in any assay. Calls of active or inactive are those of the source. Rule for the calls: active = growth percent below 10; inactive = the rest.
Give one outcome, nothing more. List: active, inactive

Exercise: What was the test verdict on COc1ccc2cc(C(=O)N3CCC([C@@H](C)C(=O)NCc4ccc5c(c4)OCO5)CC3)[nH]c2c1 ?
Solution: inactive

Exercise: What was the test verdict on Nc1cc(C(=O)O)cc(-n2c(O)c(C=C3N=c4ccccc4=N3)sc2=S)c1 ?
Solution: inactive

###

- System: EKVX NSCLC
- Test Method Notes: NCI-60 one-dose screen, 48 h (100 = growth as untreated, 0 = no growth, -100 = all killed)
- Measurement Parameters: 10 µM unless noted
This is part of a sample that, as a whole, favours compounds with a hit. Of some 83,000 tested, about 20% had one in any assay. Activity calls are given as the source filed them. The calls were made as follows: active = growth percent below 10; inactive = the rest.
Property: growth; scope: individual compounds

Please review the entries below; each comes with its answer.
Exercise: Determine its reported growth: O=C1O[C@@H](c2ccccc2Cl)[C@@H]2c3cc4c(cc3CCN12)OCO4
Solution: 101% (inactive)

Exercise: Determine its reported growth: COc1ccc2c(c1)CC[C@@H]1[C@@H]2CC[C@]2(C)c3c(cc(C#N)c4c3sc3ccccc34)C[C@@H]12
Solution: 103% (inactive)

Exercise: Determine its reported growth: CNC(=O)NCC1OC(n2cnc3c(NC(=O)Nc4ccccc4)ncnc32)C2OC(=O)CC12 (stereo not given)
Solution: 102% (inactive)

Exercise: Determine its reported growth: CCOC(=O)c1cnn(CC(C)O)c1NC(=O)NCc1ccccc1C(F)(F)F (stereo not given)
Solution: 98.1% (inactive)

Exercise: Determine its reported growth: COc1ccc(CNc2ccc3nc(NC(=O)CN4CCCCCC4)sc3c2)cc1
Solution: 80.1% (inactive)

Exercise: Determine its reported growth: COc1cc2c(c(OC)c1OC)C(=O)CC(c1cccc(C(=O)Nc3ccc(C#N)cc3)c1)O2 (stereo not given)
Solution: 80.2% (inactive)

More entries:
Exercise: Determine its reported growth: C=C1C(=O)O[C@@H]2C3C(=C(C)CC[C@@H]12)CC1O[C@]13C (stereo not given in full)
Solution: 91.5% [6.75 µM] (inactive)

Exercise: Determine its reported growth: C=C1C(=O)O[C@H]2[C@H]1CC/C(COC(=O)NCc1ccc(Cn3c(=O)sn(-c4ccccc4)c3=O)cc1)=C\CC[C@@]1(C)O[C@@H]21
Solution: 77.1% (inactive)

Exercise: Determine its reported growth: N#Cc1c(-c2ccccc2)cc(-c2ccccc2)n(CCCCC(=O)NO)c1=O
Solution: 30.6% (inactive)

Exercise: Determine its reported growth: Cc1cc(C)c2c(c1)N(C)c1ncnc(-n3c(C)nc4cc(C)ccc43)c1CC2C (stereo not given)
Solution: 45.2% (inactive)

Exercise: Determine its reported growth: COc1ccc(/C=N/NC(=O)Cn2c(-c3ccc(S(C)(=O)=O)cc3)nc3ccccc32)cc1
Solution: 97% (inactive)

Exercise: Determine its reported growth: CN1c2ccccc2S(=O)(=O)n2c(SCC(=O)Nc3nc4ccc(F)cc4s3)nnc21
Solution: 102% (inactive)

Exercise: Determine its reported growth: Cc1ccc2c(c1)nc(C)n2-c1ncnc2c1CC(C)c1cc(O)ccc1N2C (stereo not given)
Solution: 44.2% (inactive)

Exercise: Determine its reported growth: COc1ccc(/C=N/Nc2c3ccccc3nc3ccccc23)cc1
Solution: 86.9% (inactive)

Exercise: Determine its reported growth: COc1ccc(-c2cn(Cc3cc4ccccc4s3)nn2)cc1OCCN1CCCCC1
Solution: 84.3% (inactive)

Exercise: Determine its reported growth: O=C1OCC2=C1C(c1ccccc1)c1cc3c(cc1N2CCO)OCCO3 (stereo not given)
Solution: 48.4% (inactive)

Exercise: Determine its reported growth: Cc1nc2sc(C(=O)Nc3ccccn3)c(N)c2cc1C(C)O (stereo not given)
Solution: 86% (inactive)

Exercise: Determine its reported growth: COc1cc2c(c(OC)c1OC)C(=O)CC(c1cccc(C(=O)Nc3ccccc3Br)c1)O2 (stereo not given)
Solution: 99.1% (inactive)

Exercise: Determine its reported growth: CC(O)Cc1c[nH]c(=O)[nH]c1=O (stereo not given)
Solution: 106% (inactive)

Exercise: Determine its reported growth: CCSc1ccnc(N)n1
Solution: 104% (inactive)
